The measured values listed here are drawn from patent US7507730B2.

- Target: Kv1.5 (Homo sapiens)
- Sequence (P22460 whole entry): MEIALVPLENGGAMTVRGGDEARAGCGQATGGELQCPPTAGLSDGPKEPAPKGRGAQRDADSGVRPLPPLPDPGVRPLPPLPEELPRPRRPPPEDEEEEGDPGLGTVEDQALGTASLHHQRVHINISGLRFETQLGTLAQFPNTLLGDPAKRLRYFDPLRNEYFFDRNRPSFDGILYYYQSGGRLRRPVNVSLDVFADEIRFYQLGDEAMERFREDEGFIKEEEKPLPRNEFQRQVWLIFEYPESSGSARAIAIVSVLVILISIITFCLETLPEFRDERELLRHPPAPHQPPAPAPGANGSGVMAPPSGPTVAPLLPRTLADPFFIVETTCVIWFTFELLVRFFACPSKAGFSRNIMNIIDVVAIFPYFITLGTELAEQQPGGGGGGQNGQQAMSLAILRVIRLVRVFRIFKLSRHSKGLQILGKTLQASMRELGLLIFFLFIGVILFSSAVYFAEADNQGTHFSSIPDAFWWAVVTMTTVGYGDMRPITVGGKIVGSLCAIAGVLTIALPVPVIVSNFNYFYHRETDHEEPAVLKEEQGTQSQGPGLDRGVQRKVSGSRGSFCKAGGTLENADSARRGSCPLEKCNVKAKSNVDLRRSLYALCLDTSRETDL
- Protocol Description: Kv1.5 inhibition assay (IKur inhibitor assay per cited references)
- Format: cell-based
- Applied Conditions: at 0.3 μM
# reported inhibition at 0.3 µM; entries follow
Test Readout: inhibition at 0.3 µM (%)

COc1ccc(S(=O)(=O)N(C)C(=O)C2=C(C)Nc3ccnn3C2c2ccc(Cl)c(Cl)c2)cc1 (racemic)
86
COc1ccc(S(=O)(=O)N(C)C(=O)C2=C(C)Nc3cc(C)nn3C2c2ccc(Cl)c(Cl)c2)cc1 (single isomer, unassigned) [Example 81 Isomer 1]
16
CC1=C(S(=O)(=O)c2ccccc2)C(c2ccc(Cl)s2)n2nc(C(F)(F)F)cc2N1 (racemic)
7.8
CC1=C(S(=O)(=O)c2ccc(Cl)cc2)C(C2CCCCC2)n2nc(C(F)(F)F)cc2N1 (single isomer, unassigned) [Example 44 Isomer 2]
21.3
